B1: KRT71 (parent)
chain: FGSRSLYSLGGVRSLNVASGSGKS

Variants of: B1
PROTOCOL_TEXT: protein stability index of a GFP-peptide fusion (GPS, HEK-293T) (PSI 1-6); higher = more stable;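 note: lentivirally expressed fusions sorted by FACS into six bins by GFP to DsRed ratio, PSI derived from sequencing read proportions per bin multiplied by bin number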
CONDITION_LABEL: c terminus: a fixed tail appended
Please enter YES where protein stability index is greater than or equal to 2, and NO where it is lower.

Check out these entries, answers already filled in.
Please check the record K23M and state if its protein stability index is at or above 2.
NO

Please check the record G22F and state if its protein stability index is at or above 2.
NO

Please check the record A18D and state if its protein stability index is at or above 2.
NO

Please check the record S21A and state if its protein stability index is at or above 2.
NO

Please check the record K23S and state if its protein stability index is at or above 2.
NO

Please check the record S14W and state if its protein stability index is at or above 2.
NO

Please check the record R13H and state if its protein stability index is at or above 2.
NO

Please check the record S3A and state if its protein stability index is at or above 2.
YES

New cases:
Please check the record G22E and state if its protein stability index is at or above 2.
YES

Please check the record N16W and state if its protein stability index is at or above 2.
YES

Please check the record Y7T and state if its protein stability index is at or above 2.
YES

Please check the record G10I and state if its protein stability index is at or above 2.
YES

Please check the record L9I and state if its protein stability index is at or above 2.
NO

Please check the record K23L and state if its protein stability index is at or above 2.
NO

Please check the record A18R and state if its protein stability index is at or above 2.
YES

Please check the record V17E and state if its protein stability index is at or above 2.
NO
